target-entity: Multidrug resistance-associated protein 1 (Homo sapiens)
Sequence (P33527 whole entry): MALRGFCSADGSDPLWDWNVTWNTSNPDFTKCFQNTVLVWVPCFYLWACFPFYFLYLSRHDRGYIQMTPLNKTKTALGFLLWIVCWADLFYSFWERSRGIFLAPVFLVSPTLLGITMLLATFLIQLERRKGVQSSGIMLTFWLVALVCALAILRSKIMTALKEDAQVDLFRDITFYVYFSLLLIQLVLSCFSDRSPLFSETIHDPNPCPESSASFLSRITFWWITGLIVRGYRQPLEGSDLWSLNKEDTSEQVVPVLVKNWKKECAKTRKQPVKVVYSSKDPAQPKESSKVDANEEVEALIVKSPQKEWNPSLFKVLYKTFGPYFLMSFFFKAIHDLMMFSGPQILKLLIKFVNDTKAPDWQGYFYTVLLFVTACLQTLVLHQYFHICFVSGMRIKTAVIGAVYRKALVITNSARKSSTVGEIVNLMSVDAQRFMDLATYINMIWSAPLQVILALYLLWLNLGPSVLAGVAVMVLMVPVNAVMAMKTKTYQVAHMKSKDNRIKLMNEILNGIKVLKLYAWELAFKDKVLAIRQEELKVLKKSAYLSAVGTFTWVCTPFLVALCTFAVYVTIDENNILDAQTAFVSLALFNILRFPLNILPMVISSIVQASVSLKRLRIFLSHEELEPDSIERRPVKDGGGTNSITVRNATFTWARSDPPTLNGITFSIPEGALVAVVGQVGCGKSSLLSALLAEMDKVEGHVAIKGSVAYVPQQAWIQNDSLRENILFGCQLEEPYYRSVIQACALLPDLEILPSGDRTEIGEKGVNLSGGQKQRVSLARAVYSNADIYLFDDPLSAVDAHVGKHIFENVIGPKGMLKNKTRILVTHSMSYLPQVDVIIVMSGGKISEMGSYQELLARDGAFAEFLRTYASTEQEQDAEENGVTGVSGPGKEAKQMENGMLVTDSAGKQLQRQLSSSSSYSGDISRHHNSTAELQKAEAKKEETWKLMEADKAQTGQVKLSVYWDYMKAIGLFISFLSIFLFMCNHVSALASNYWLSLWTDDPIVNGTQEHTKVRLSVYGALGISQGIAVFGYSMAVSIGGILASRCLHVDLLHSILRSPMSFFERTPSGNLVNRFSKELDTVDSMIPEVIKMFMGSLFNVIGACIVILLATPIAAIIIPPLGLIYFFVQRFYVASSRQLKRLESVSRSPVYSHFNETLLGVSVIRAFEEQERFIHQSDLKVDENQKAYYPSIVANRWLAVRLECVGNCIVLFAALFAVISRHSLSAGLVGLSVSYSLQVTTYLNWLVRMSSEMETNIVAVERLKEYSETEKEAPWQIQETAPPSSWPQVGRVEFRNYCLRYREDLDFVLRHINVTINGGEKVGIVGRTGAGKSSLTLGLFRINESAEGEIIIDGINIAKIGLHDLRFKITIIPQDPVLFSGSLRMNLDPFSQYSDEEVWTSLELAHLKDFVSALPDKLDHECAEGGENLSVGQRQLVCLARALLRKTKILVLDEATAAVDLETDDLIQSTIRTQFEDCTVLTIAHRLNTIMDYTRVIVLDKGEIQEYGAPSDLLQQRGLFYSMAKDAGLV
assay-comment: TP_TRANSPORTER: cell accumulation in MCF7/MRP1-M24 cells
Type: functional, cell-based
pIC50: −log10 of the molar value.
quantity-kind: pIC50

INSERT INTO results (record_smiles, target_entity, quantity_kind, value) VALUES
  ('O=C1c2c(O)ccc(O)c2C(=O)c2c(NCCNCCO)ccc(NCCNCCO)c21', 'Multidrug resistance-associated protein 1 (Homo sapiens)', 'pIC50', 8.82);
